Test system: Zika virus NS2B-NS3 protease (linked construct)
Assay: Primary screen NINDS Rhodamine qHTS for Zika virus inhibitors (AID 1347160); further: nearly all actives have a fitted effect of over 55% in size
Details: purified NS2B-NS3 protease, Rhodamine110 substrate fluorescence; at 57.1 µM (top of the series) unless noted; series mostly up to 57.1 µM
Records with an inconclusive call do not appear. Active and inactive are the calls of the source. The call rests on the fitted dose curve; in most records, active means well fitted inhibition curve with a large enough effect; inconclusive means small, poorly fitted or top-dose-only effect; inactive means no such curve, though single readings can be large or run the other way.
measurementType: outcome

>>> print(df.to_string())
                                   compound    result
0       CC(C)(C)c1nnc(NS(=O)(=O)c2ccccc2)s1  inactive
1  CCN1C(=O)c2ccccc2C1Nc1ccc(OCCN2CCCCC2)cc1 (stereo not given)  inactive
2  O=[N+]([O-])c1ccc(-c2nc(-c3ccc(F)cc3)c(-c3ccncc3)[nH]2)cc1  inactive
3  CN(C)c1cc2c(Nc3ccc4c(cnn4Cc4ccccc4)c3)ncnc2cn1  inactive
4  C=CC[N+]1([C@H]2C[C@H]3[C@@H]4CC[C@H]5C[C@H](OC(C)=O)[C@@H](N6CCCCC6)C[C@]5(C)[C@H]4CC[C@]3(C)[C@H]2OC(=O)CC)CCCCC1  inactive
5  CC(=O)Oc1ccc(C2(c3ccc(OC(C)=O)cc3)Oc3ccccc3NC2=O)cc1  inactive
6  CO[C@]1(NC(=O)CSC(F)F)C(=O)N2C(C(=O)O)=C(CSc3nnnn3CCO)CO[C@H]21  inactive
7           Nc1ncnc2n[nH]c(Nc3ccc(F)cc3)c12  inactive
8  CC(C(=O)O)c1ccc(/C=C2\CCCCC2=O)cc1 (stereo not given)  inactive
9  O=[N+]([O-])c1nccn1CO[C@@H](CO)[C@H](O)CO  inactive
